TESTED ON: GST-Xa-hAAK1 (Homo sapiens, UniProt Q2M2I8)
Construct: GST (N); Factor Xa cleavage site (Xa) (internal)
Sequence (Q2M2I8 whole entry): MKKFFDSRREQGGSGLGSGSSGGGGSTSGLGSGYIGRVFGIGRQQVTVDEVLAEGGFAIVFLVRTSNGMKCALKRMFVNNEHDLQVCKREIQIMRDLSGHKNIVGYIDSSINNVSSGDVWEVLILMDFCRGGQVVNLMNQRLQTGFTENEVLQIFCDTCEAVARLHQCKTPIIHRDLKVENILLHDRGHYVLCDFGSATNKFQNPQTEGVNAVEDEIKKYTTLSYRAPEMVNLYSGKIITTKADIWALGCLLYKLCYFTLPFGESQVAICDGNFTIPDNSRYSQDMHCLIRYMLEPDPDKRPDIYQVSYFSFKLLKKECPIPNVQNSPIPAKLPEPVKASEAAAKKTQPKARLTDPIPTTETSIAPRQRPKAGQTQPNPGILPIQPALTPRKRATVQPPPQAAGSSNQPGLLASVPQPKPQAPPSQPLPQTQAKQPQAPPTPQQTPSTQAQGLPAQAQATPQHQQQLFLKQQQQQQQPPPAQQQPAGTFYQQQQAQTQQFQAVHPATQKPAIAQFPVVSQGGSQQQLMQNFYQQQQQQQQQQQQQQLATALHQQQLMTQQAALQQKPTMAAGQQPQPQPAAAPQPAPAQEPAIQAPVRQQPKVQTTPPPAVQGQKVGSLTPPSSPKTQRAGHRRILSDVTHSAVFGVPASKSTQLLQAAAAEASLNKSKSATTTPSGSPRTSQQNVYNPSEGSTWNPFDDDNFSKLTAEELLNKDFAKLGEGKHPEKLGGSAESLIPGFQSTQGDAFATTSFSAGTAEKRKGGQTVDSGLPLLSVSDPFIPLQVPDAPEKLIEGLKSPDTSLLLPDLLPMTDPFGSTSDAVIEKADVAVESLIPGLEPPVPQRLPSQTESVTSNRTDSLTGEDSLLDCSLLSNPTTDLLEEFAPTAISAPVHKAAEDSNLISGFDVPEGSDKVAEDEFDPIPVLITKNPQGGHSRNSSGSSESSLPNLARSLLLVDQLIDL
MEASUREMENT DESCRIPTION: AAK1 Kinase Assay
CONDITION LABEL: bacterially expressed GST-Xa-hAAK1 3.5 nM; ATP 22 μM; fluoresceinated peptide 1.5 μM; 3 hours at room temperature; Caliper LabChip 3000
Labelling field: enter Yes if recorded IC50 is less than 70 nM. Enter No if it equals or exceeds that cut-off.

> print(dat)
                                    compound  cat
 1  CC(C)C[C@](C)(N)COc1ccc(-c2cnc3cccnn23)cc1Cl  Yes
 2  Cc1cc(-c2ccc(OC[C@@](C)(N)CC(C)C)c(C#N)c2)n2nc(C)cc2n1   No
 3  CC(C)C[C@](C)(N)COc1ccc(-c2ccnc(NC(=O)C3=NNC(=O)CC3)c2)cc1C(F)(F)F  Yes
 4  Cc1cn2nccc(-c3ccc(OC[C@@](C)(N)CC(C)C)c(C(F)F)n3)c2n1  Yes
 5  Cc1csc(Nc2nccc(-c3ccc(OC[C@@](C)(N)CC(C)C)c(C(F)(F)F)c3)n2)n1  Yes
 6  Cc1cc(-c2cnc3cccnn23)ccc1OC[C@@](C)(N)CC(C)C   No
 7  Cc1nc2nccc(-c3ccc(OC[C@@](C)(N)CC(C)C)c(C#N)c3)c2nc1C   No
 8  CCN1Cc2nccc(-c3ccc(OC[C@@](C)(N)CC(C)C)c(F)c3)c2C1=O   No
 9  CC(C)C[C@](C)(N)COc1ccc(-c2ccnc(NC3CCCOC3)c2)cc1Cl (single isomer, unassigned) [Example 340]   No
10  Cc1cc(-c2ccnc(Nc3nccs3)n2)ccc1OC[C@@](C)(N)CC(C)C  Yes
11  CC(C)C[C@](C)(N)COc1ccc(-c2ccnc3ccn(C)c23)cc1C#N   No
12  CC(C)C[C@](C)(N)COc1ccc(-c2ncnc3c2ccn3C)cc1C(F)(F)F  Yes
13  COC(=O)Nc1cc(-c2ccc(OC[C@@](C)(N)CC(C)C)c3ncsc23)ccn1  Yes
14  CC(C)C[C@](C)(N)COc1ccc(-c2ccnc3ccnn23)nc1C(F)F  Yes
15  CC(C)C[C@](C)(N)COc1ccc(-c2ccnc3ccnn23)cc1Cl  Yes
16  Cc1nc2c(-c3ccc(OC[C@@](C)(N)CC(C)C)c(C#N)c3)ncnc2s1  Yes

----------
Listing of recorded IC50 by entry.
TESTED ON: GST-Xa-hAAK1 (Homo sapiens)
Construct: GST (N); Factor Xa cleavage site (Xa) (internal)
MEASUREMENT DESCRIPTION: AAK1 Kinase Assay
CONDITION LABEL: bacterially expressed GST-Xa-hAAK1 3.5 nM; ATP 22 μM; fluoresceinated peptide 1.5 μM; 3 hours at room temperature; Caliper LabChip 3000
ATTRIBUTE MEASURED: IC50 (nM)

> print(dat)
                                   compound  attribute.measured  units  measured.result
1  CC(C)C[C@](C)(N)COc1ccc(-c2ccnc(NC3CCOC3)c2)cc1Cl (some centres unmarked)                IC50     nM              5.2
2  CC(C)C[C@](C)(N)COc1ccc(-c2ccnc3ccnn23)nc1CF                IC50     nM              0.9
3  CC(C)C[C@](C)(N)COc1ccc(-c2ccnc(NC(=O)c3nccs3)c2)cc1C(F)(F)F                IC50     nM             0.47
4  CC(C)C[C@](C)(N)COc1ccc(-c2ccnc(NC3CCCOC3)c2)cc1Cl (mixture of isomers) [Example 338]                IC50     nM               35
5  CC(C)C[C@](C)(N)COc1ccc(-c2cc(Cl)nn3ccnc23)cc1C#N                IC50     nM               47
6  Cc1cn2nccc(-c3ccc(OC[C@@](C)(N)CC(C)C)c(C#N)c3)c2n1                IC50     nM              1.8
7  Cc1cc(-c2ccnn3cc(C(F)(F)F)nc23)ccc1OC[C@@](C)(N)CC(C)C                IC50     nM               30
8  CC(C)C[C@](C)(N)COc1ccc(-c2ccnc(Nc3ccc4c(c3)OCO4)c2)cc1C(F)(F)F                IC50     nM              6.4
